Target: contractile response induced by histamine in isolated guinea-pig ileum (Cavia porcellus, UniProt P31389)
Construct: An approximately 20 mm strip of isolated ileum was mounted vertically; from tissue; host or cells: isolated ileum strip, male Hartley guinea-pig
Sequence (P31389 whole entry): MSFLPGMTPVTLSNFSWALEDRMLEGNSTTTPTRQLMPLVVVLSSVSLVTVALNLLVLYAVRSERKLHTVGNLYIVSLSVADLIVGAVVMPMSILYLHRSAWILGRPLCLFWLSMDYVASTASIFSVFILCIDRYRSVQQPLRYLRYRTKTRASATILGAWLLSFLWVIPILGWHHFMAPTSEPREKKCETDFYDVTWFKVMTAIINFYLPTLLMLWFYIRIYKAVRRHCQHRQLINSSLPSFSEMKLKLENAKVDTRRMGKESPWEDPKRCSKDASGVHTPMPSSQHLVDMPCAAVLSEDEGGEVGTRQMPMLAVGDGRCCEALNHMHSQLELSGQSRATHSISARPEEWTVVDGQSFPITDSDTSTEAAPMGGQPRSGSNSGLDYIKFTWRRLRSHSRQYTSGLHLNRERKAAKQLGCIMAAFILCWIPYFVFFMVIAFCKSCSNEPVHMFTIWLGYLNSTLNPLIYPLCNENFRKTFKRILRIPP
Test: Antihistaminic activity (Effect on the contractile response induced by histamine in isolated guinea-pig ileum)
Set-up: species or system guinea-pig (male Hartley)
Details: dissociation constant KB (M), method of Furchgott, 30 min contact with test compound, 28° C.
Property Measured: Kb
Number first, unit second.

Annotate the compound CCOC(=O)CCCN1CCN(C2=Nc3ccccc3Oc3ccc(Cl)cc32)CC1 with its measured Kb.
4.9e-09 M

Note down Kb recorded for CCOC(=O)CN1CCN(C2=Nc3ccccc3Cc3ccccc32)CC1
4.57e-08 M

Provide only the value of recorded Kb for CCOC(=O)CCN1CCN(C2=Nc3ccccc3Cc3ccccc32)CC1
8.91e-09 M

Quickly give me recorded Kb for CCOC(=O)CCCCN1CCN(C2=Nc3ccccc3Cc3ccccc32)CC1
7.94e-09 M

Answer with reported Kb of O=C(O)CCCCCN1CCN(C2=Nc3ccccc3Cc3ccccc32)CC1
2.69e-08 M

For CCOC(=O)CCCN1CCN(C2=Nc3ccccc3Sc3ccc(Cl)cc32)CC1 , write its Kb.
3.02e-08 M

Determine from records and report Kb for CCOC(=O)CCCCN1CCN2c3ccccc3Cc3ccccc3C2C1 (stereo not drawn)
1.1e-08 M

Report Kb for CCOC(=O)CCCCCN1CCN(C2=Nc3ccccc3Cc3ccccc32)CC1
1.74e-08 M

Please give the documented Kb of O=C(O)CCCN1CCN2c3ccccc3Cc3ccccc3C2C1 (stereo not drawn)
3.09e-08 M

====

Target: contractile response induced by histamine in isolated guinea-pig ileum (Cavia porcellus, UniProt P31389)
Construct: An approximately 20 mm strip of isolated ileum was mounted vertically; from tissue; host or cells: isolated ileum strip, male Hartley guinea-pig
Assay: Antihistaminic activity (Effect on the contractile response induced by histamine in isolated guinea-pig ileum)
Set-up: species or system guinea-pig (male Hartley)
Conditions: dissociation constant KB (M), method of Furchgott, 30 min contact with test compound, 28° C.
Protocol: 1. Antihistaminic activity (Effect on the contractile response induced by histamine in isolated guinea-pig ileum) Male Hartley guinea-pigs, 5-8 weeks of age, were sacrificed and the ileum was excised. […] The contractile response was recorded on a recticorder an isotonic transducer. The concentration-contractile response curve to histamine was constructed before and after 30 min contact with test compounds.
Exercise: state measured Kb for each of the compounds provided.
Respond with the bare value in M.

Retrieve Kb measured for O=C(O)CCCN1CCN(C2=Nc3ccccc3Oc3ccc(Cl)cc32)CC1 and print it.
4.79e-08

Return Kb (reported value) for this compound: O=C(O)CCCCN1CCN2c3ccccc3Cc3ccccc3C2C1 (stereo not shown)
4.79e-08

Give me measured Kb, please, for this compound: CCOC(=O)CCCN1CCN(C2=Nc3ccccc3Cc3ccccc32)CC1
1.35e-08

Answer with reported Kb of CCOC(=O)CCCCCN1CCN(C2=Nc3ccccc3Oc3ccc(Cl)cc32)CC1
3.09e-09

Consider the compound O=C(O)CN1CCN2c3ccccc3Cc3ccccc3C2C1 (stereo not shown) . State its measured Kb.
1.82e-08

In one line, give reported Kb of the entry O=C(O)CCCCN1CCN(C2=Nc3ccccc3Cc3ccccc32)CC1 .
5.75e-08

Using the record for CCOC(=O)CCN1CCN(C2=Nc3ccccc3Sc3ccc(Cl)cc32)CC1 , state its measured Kb.
5.13e-08

Return value of Kb for input CN1CCN(C2=Nc3ccccc3Sc3ccc(Cl)cc32)CC1 [Clothiapine, reference compound] , no commentary.
1.35e-09

Determine from records and report Kb for CCOC(=O)CN1CCN2c3ccccc3Cc3ccccc3C2C1 (stereo not shown)
3.24e-08

Tell me Kb reported for O=C(O)CCN1CCN(C2=Nc3ccccc3Cc3ccccc32)CC1
5.75e-08

Tell us which Kb value is on record for CCOC(=O)CCCCCN1CCN(C2=Nc3ccccc3Sc3ccc(Cl)cc32)CC1
5.5e-08

Provide one value: measured Kb of O=C(O)CCCN1CCN(C2=Nc3ccccc3Sc3ccc(Cl)cc32)CC1
5.75e-08

Could you please provide reported Kb for CCOC(=O)CCCN1CCN2c3ccccc3Cc3ccccc3C2C1 (stereo not shown) ? Thanks!
2.4e-09

Provide Kb value for the following compound: CCOC(=O)CCN1CCN(C2=Nc3ccccc3Oc3ccc(Cl)cc32)CC1
1.2e-08

Determine its reported Kb: CCOC(=O)CCCCN1CCN(C2=Nc3ccccc3Sc3ccc(Cl)cc32)CC1
4.68e-08

Please report Kb for the following compound: O=C(O)CCCCCN1CCN2c3ccccc3Cc3ccccc3C2C1 (stereo not shown)
3.24e-08

Answer with the recorded Kb for the compound listed here: CN1CCN(C2=Nc3ccccc3Cc3ccccc32)CC1 [Perlapine, reference compound]
7.08e-10

# return recorded Kb for entry O=C(O)CCCCN1CCN(C2=Nc3ccccc3Oc3ccc(Cl)cc32)CC1
5.5e-08

Give recorded Kb. O=C(O)CCCCN1CCN(C2=Nc3ccccc3Sc3ccc(Cl)cc32)CC1
5.89e-08
